Data origin: patent US20190022039A1

Molecular target: UniProt P43220
Sequence (P43220 24-463): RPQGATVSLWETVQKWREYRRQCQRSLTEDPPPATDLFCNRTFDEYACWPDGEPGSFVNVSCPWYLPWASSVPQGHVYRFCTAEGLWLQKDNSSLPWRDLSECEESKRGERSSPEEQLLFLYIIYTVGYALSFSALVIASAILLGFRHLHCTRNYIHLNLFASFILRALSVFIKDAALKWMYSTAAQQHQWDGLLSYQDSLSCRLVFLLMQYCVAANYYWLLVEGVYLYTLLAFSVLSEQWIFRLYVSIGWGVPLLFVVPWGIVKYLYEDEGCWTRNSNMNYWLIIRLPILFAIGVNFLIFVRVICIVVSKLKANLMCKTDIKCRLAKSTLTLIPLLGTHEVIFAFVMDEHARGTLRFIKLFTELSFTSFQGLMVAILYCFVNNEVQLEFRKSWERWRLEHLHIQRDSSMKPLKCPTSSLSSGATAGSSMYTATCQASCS
Test: GLP-1 receptor in vitro calcium assay (intracellular free calcium concentration change induced via GLP-1 receptor)
Conditions: PRG48 cells transfected with human GLP-1R; compound added with 250 pM GLP-1; Ca2+ response ΔF/F; read-out: Ca EC50 value
Measured Quantity: pEC50
pEC50 (log units): -log10 of the concentration in mol/L.

Q: Specify pEC50 for CCCCCCNc1ccc(S(=O)(=O)Nc2ccc(NC(=O)N[C@H](CC3CCCCC3)C(=O)NC(C)CCCC(C)C)cc2)cn1 (some centres unmarked) and stop.
Ans: 6.36

Q: Specify pEC50 for Cc1ccc(S(=O)(=O)Nc2ccc(NC(=O)N[C@H](CC(C)C)C(=O)NC3CCCCCC3)cc2)cc1 and stop.
Ans: 5.89

Q: Specify pEC50 for Cc1ccc(S(=O)(=O)Nc2ccc(NC(=O)N[C@H](Cc3ccccc3)C(=O)NC(C)CCCC(C)C)cc2)cc1 (some centres unmarked) and stop.
Ans: 7.35

Q: Specify pEC50 for CCCCC(CC)CNC(=O)[C@H](CC1CCCCC1)NC(=O)Nc1ccc(NS(=O)(=O)c2ccc(C(C)(C)C)cc2)cc1 (some centres unmarked) and stop.
Ans: 8.17

Q: Specify pEC50 for CCC(CC)CNC(=O)[C@@H](CC(C)C)NC(=O)Nc1ccc(NS(=O)(=O)c2ccc(C)cc2)cc1 and stop.
Ans: 5.92

Q: Specify pEC50 for CCCCCCNC(=O)[C@@H](CC1CCCCC1)NC(=O)Nc1ccc(NS(=O)(=O)c2ccc(C)cc2)cc1 and stop.
Ans: 6.44

Q: Specify pEC50 for Cc1ccc(S(=O)(=O)Nc2ccc(NC(=O)N[C@H](Cc3ccccc3)C(=O)NCc3ccc(C)o3)cc2)cc1 and stop.
Ans: 6.09

Q: Specify pEC50 for CC(C)CCCC(C)NC(=O)[C@@H](Cc1ccncc1)NC(=O)Nc1ccc(NS(=O)(=O)c2ccc(C(C)(C)C)cc2)cc1 (some centres unmarked) and stop.
Ans: 6.41

Q: Specify pEC50 for CCCCC(CC)CNC(=O)[C@H](Cc1c[nH]c2ccccc12)NC(=O)Nc1ccc(NS(=O)(=O)c2ccc(C(C)(C)C)cc2)cc1 (some centres unmarked) and stop.
Ans: 8.00

Q: Specify pEC50 for Cc1ccc(S(=O)(=O)Nc2ccc(NC(=O)N[C@H](CC(C)C)C(=O)NCCc3cccs3)cc2)cc1 and stop.
Ans: 5.74

Q: Specify pEC50 for CCCCCCNC(=O)[C@@H](CCCC)NC(=O)Nc1ccc(NS(=O)(=O)c2ccc(C)cc2)cc1 and stop.
Ans: 6.28

Q: Specify pEC50 for CCCCC(CC)CNC(=O)[C@@H](CC1CCCCC1)NC(=O)Nc1ccc(N2CCOCC2)c(NS(=O)(=O)c2ccc(C(C)(C)C)cc2)c1 (some centres unmarked) and stop.
Ans: 7.30

Q: Specify pEC50 for Cc1ccc(S(=O)(=O)Nc2ccc(NC(=O)N[C@H](Cc3ccccc3)C(=O)NC(C)(C)C34CC5CC(CC(C5)C3)C4)cc2)cc1 and stop.
Ans: 7.82

Q: Specify pEC50 for COCCCNC(=O)[C@@H](CC1CCCCC1)NC(=O)Nc1ccc(NS(=O)(=O)c2ccc(C(C)(C)C)cc2)cc1 and stop.
Ans: 6.14
